target: UniProtKB P50406; test: Displacement of [3H]-LSD from human 5HT6R expressed in HEK293 cell membranes after 1 hr by microbeta counting method
Sequence (P50406 whole entry): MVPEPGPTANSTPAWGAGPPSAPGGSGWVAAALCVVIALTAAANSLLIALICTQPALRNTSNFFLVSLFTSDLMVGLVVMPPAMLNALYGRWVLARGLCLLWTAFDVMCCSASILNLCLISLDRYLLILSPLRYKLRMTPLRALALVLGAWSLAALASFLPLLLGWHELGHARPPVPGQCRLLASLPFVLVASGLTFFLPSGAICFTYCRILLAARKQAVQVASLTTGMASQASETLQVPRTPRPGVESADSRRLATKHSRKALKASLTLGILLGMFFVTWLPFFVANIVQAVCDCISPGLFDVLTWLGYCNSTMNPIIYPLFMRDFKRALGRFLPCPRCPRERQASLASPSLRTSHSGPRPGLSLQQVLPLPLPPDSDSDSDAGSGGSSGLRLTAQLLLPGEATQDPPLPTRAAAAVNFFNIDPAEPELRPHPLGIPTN
Measured Property: Ki (nM)

Worked examples follow.
Structure: COc1cccc(Cn2c(C(C)C)nc3c(N4CCNCC4)ccnc32)c1
Result Unit: nM
Ki: 92
--
Structure: Cc1nc2c(N3CCNCC3)ccnc2n1Cc1ccccc1
Result Unit: nM
Ki: 101
--
Structure: CC(C)c1nc2c(N3CCNCC3)ccnc2n1Cc1ccccc1F
Result Unit: nM
Ki: 61

1: CC(C)c1nc2c(N3CCNCC3)ccnc2n1CCc1cccc(Cl)c1
2: CC(C)c1nc2c(N3CCNCC3)nccc2n1Cc1cccc(Cl)c1
Between 1 and 2 , whose recorded Ki is greater? Answer format: the label of the selected item.
2
(2: 126 nM, 1: 80 nM)

Source: ChEMBL document CHEMBL4145461
